Assignment: determine reported IC50 for the given compounds.
target: human TLR8 (Homo sapiens, UniProt Q9NR97); assay: TLR8 inhibition reporter assay (HEK-Blue SEAP reporter, R848 stimulation); conditions: HEK-Blue cells overexpressing human TLR8, SEAP reporter, R848 15.9 μM, 22 hour incubation
Sequence (Q9NR97 27-1041): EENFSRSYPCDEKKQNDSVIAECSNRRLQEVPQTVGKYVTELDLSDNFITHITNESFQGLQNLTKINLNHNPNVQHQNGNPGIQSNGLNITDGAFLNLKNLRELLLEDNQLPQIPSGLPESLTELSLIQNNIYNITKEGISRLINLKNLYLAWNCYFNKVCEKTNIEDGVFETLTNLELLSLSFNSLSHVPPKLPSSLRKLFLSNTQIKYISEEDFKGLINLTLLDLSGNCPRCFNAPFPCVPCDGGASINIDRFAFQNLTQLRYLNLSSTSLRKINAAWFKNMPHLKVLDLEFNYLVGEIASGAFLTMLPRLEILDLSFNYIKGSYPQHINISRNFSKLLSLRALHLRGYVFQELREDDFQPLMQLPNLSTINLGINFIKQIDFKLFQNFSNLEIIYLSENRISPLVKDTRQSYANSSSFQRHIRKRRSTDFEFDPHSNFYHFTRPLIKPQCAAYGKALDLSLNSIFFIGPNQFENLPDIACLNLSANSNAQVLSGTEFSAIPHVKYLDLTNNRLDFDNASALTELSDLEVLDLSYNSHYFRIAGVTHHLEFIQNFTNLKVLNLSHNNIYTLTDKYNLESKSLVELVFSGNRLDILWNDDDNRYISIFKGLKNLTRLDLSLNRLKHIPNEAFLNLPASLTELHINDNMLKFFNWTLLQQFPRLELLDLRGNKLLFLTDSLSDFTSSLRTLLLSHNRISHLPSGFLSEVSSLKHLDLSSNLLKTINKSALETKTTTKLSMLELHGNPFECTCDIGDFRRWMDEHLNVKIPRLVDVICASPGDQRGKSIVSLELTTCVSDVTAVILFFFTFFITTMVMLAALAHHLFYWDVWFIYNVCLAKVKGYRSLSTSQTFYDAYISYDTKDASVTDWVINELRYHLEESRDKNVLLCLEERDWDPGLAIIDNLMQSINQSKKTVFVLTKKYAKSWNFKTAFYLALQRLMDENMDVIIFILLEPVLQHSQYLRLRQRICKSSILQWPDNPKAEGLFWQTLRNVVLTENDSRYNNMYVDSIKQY

// batch mode: one IC50 value per listed entry
1. Cc1c(-c2[nH]c3ccc(C4CCN(C5COC5)CC4)cc3c2C(C)C)cn(C)c(=O)c1C
2. CCn1cc(-c2[nH]c3ccc(C4CCN(CC(=O)N(C)C)CC4)cc3c2C(C)C)cc(C)c1=O
3. Cc1c(-c2[nH]c3ccc(C4CCN(C(C)C)CC4)cc3c2C(C)C)cn(C)c(=O)c1C
4. CCn1cc(-c2[nH]c3ccc(C4CCN(C(C)C)CC4)cc3c2C(C)C)c(C)c(C)c1=O

Reply:
1: 11.7 nM; 2: 6.2 nM; 3: 17.4 nM; 4: 16.5 nM
